target: T1, Anti-CD28 Fab (SEQ ID NOs: 202, 203)
T1 construct: biotinylated and captured on neutravidin coated plates in the phage ELISA
T1 sequence (VH, as listed by the source, chain 1 of 2): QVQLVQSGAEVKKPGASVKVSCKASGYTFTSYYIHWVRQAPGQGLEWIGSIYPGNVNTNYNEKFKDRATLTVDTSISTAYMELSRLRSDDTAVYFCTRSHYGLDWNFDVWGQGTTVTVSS
T1 sequence (VL, as listed by the source, chain 2 of 2): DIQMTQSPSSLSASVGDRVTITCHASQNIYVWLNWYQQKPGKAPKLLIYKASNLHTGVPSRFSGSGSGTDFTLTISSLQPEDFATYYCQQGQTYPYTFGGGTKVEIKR
test: phage binding ELISA, Fab on plate;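 also: clonal phage supernatant ELISA, wells preincubated with CD28 antigen or blocking buffer only, then bound phage detected using HRP-linked anti-M13 antibody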
Please go through the items and note down their Anti-CD28 Fab (SEQ ID NOs: 202, 203) signal.
Answer with a number only.

Ask: Sample LCRAGAMWPWPTCL [Phage-1005] — what was its Anti-CD28 Fab (SEQ ID NOs: 202, 203) signal?
Reply: 1.83

Ask: // repeat for SCKAGAPYYWPGCF [Phage-1088] and report
Reply: 1.54

Ask: // repeat for LCSAGAMYPWPLCY [Phage-1051] and report
Reply: 1.66

Ask: // repeat for TCSAGATYSWPFCF [Phage-1087] and report
Reply: 1.55

Ask: // repeat for WCAAVFSYSWPLCL [Phage-1032] and report
Reply: 1.75

Ask: // repeat for SCAAGAAYPWPACL [Phage-1013] and report
Reply: 1.8

Ask: // repeat for SCAAGAPYPWPECL [Phage-1071] and report
Reply: 1.59

Ask: // repeat for TCAAGAMWVWPTCL [Phage-1052] and report
Reply: 1.66

Ask: // repeat for PCAAGAMWPWPVCL [Phage-986] and report
Reply: 1.95

Ask: // repeat for SCAAGAQYGWPMCL [Phage-1076] and report
Reply: 1.59

Ask: // repeat for TCAAGATWDWPLCF [Phage-1099] and report
Reply: 1.51

Ask: // repeat for TCAAGASYPWPACL [Phage-998] and report
Reply: 1.89

Ask: // repeat for WCAEFFNYHWPLCF [Phage-1021] and report
Reply: 1.77

Ask: // repeat for TCSAGAHYVWPMCF [Phage-994] and report
Reply: 1.91

Ask: // repeat for GCAAGANYPWPLCL [Phage-1069] and report
Reply: 1.59

Ask: // repeat for YCSAGAQWPWPICL [Phage-1014] and report
Reply: 1.79
